# Tested on: RPMI-8226
# Procedure details: cells
# Condition context: Homo sapiens, RPMI-8226, 48 h
Under this convention, criterion met denotes GI50 strictly below 3 µM and criterion not met denotes GI50 at or above 3 µM.

Hello, I'm reviewing records and need to know if GI50 of Nc1nc(N)c2c(n1)NC(c1ccc(F)cc1)CC(c1ccc(Nc3nc(NCCO)nc(Nc4ccc(Cl)cc4)n3)cc1)=N2 (stereo not shown) [33f] is below 3 µM. Could you check?
criterion met

Hello, I'm reviewing records and need to know if GI50 of CN(C)c1nc(NCCNS(=O)(=O)c2ccc(C3=Nc4c(N)nc(N)nc4NC(c4ccccc4)C3)cc2)nc(Nc2ccc(F)cc2)n1 (stereo not shown) [31a] is below 3 µM. Could you check?
criterion not met

Hello, I'm reviewing records and need to know if GI50 of Nc1nc(N)c2c(n1)NC(c1ccc(Cl)cc1)CC(c1ccc(Nc3nc(NCCO)nc(Nc4ccc(Cl)cc4)n3)cc1)=N2 (stereo not shown) [33e] is below 3 µM. Could you check?
criterion met

Hello, I'm reviewing records and need to know if GI50 of CN(C)c1nc(NCCNS(=O)(=O)c2ccc(C(=O)/C=C/c3ccc(F)cc3)cc2)nc(N2CCOCC2)n1 [23f] is below 3 µM. Could you check?
criterion met

Hello, I'm reviewing records and need to know if GI50 of CN(C)c1nc(NCCNS(=O)(=O)c2ccc(C3=Nc4c(N)nc(N)nc4NC(c4ccc(C(F)(F)F)cc4)C3)cc2)nc(Nc2ccc(F)cc2)n1 (stereo not shown) [31g] is below 3 µM. Could you check?
criterion not met

----------
# Tested on: NCI-H226
# Procedure details: cells
# Condition context: Homo sapiens, NCI-H226, 48 h, read-out: LC50
Assay endpoint: CC50

Which CC50 value belongs to COc1cc(/C=C/C(=O)c2ccc(C)cc2)ccc1Oc1nc(Nc2ccc(F)cc2)nc(N(C)C)n1 [21b] ?
49.1 µM

Which CC50 value belongs to Cc1ccc(C2CC(c3ccc(S(=O)(=O)NCCNc4nc(Nc5ccc(F)cc5)nc(N(C)C)n4)cc3)=Nc3c(N)nc(N)nc3N2)cc1 (stereo not shown) [31b] ?
> 100 µM

Which CC50 value belongs to COc1cc(/C=C/C(=O)c2ccc(C)cc2)ccc1Oc1nc(NCCO)nc(N2CCOCC2)n1 [20b] ?
> 100 µM

Which CC50 value belongs to COc1cc(/C=C/C(=O)c2cc(OC)c(OC)c(OC)c2)ccc1Oc1nc(Nc2ccc(F)cc2)nc(N(C)C)n1 [21d] ?
7.24 µM

----------
# Test system: UACC-257
# Procedure details: cells
# Condition context: Homo sapiens, UACC-257, 48 h, read-out: LC50
Field: log10 CC50. Provide a value for each of the compounds that follow.
Could you please treat all values as log10 of CC50 in µM?

Which log10 CC50 value belongs to COc1cc(/C=C/C(=O)c2cc(OC)c(OC)c(OC)c2)ccc1Oc1nc(NCCO)nc(N2CCOCC2)n1 [20d] ?
1.56

Which log10 CC50 value belongs to Nc1nc(N)c2c(n1)NC(c1ccc(Cl)cc1)CC(c1ccc(Nc3nc(NCCO)nc(Nc4ccc(Cl)cc4)n3)cc1)=N2 (centres unmarked) [33e] ?
0.86

Which log10 CC50 value belongs to Cc1ccc(/C=C/C(=O)c2ccc(S(=O)(=O)NCCNc3nc(Nc4ccc(F)cc4)nc(N(C)C)n3)cc2)cc1 [24b] ?
1.80

Which log10 CC50 value belongs to COc1cc(/C=C/C(=O)c2ccc(S(=O)(=O)NCCNc3nc(Nc4ccc(F)cc4)nc(N(C)C)n3)cc2)cc(OC)c1OC [24d] ?
1.81

Which log10 CC50 value belongs to Nc1nc(N)c2c(n1)NC(c1ccccc1)CC(c1ccc(Nc3nc(NCCO)nc(Nc4ccc(Cl)cc4)n3)cc1)=N2 (centres unmarked) [33a] ?
0.81

Which log10 CC50 value belongs to CN(C)c1nc(NCCNS(=O)(=O)c2ccc(C(=O)/C=C/c3ccc(C(F)(F)F)cc3)cc2)nc(N2CCOCC2)n1 [23g] ?
1.75

Which log10 CC50 value belongs to Nc1nc(N)c2c(n1)NC(c1ccc(F)cc1)CC(c1ccc(Nc3nc(NCCO)nc(Nc4ccc(Cl)cc4)n3)cc1)=N2 (centres unmarked) [33f] ?
0.83

Which log10 CC50 value belongs to Nc1nc(N)c2c(n1)NC(c1ccc(C(F)(F)F)cc1)CC(c1ccc(Nc3nc(NCCO)nc(Nc4ccc(Cl)cc4)n3)cc1)=N2 (centres unmarked) [33g] ?
0.76

Which log10 CC50 value belongs to CN(C)c1nc(NCCNS(=O)(=O)c2ccc(C(=O)/C=C/c3ccc(Cl)cc3)cc2)nc(N2CCOCC2)n1 [23e] ?
1.75

Which log10 CC50 value belongs to CN(C)c1nc(NCCNS(=O)(=O)c2ccc(C(=O)/C=C/c3ccccc3)cc2)nc(N2CCOCC2)n1 [23a] ?
1.77

----------
# System: OVCAR-3
# Procedure details: cells
# Condition context: Homo sapiens, OVCAR-3, 48 h
Classification scheme (GI50): class 0: < 3 µM; class 1: ≥ 3 µM and < 10 µM; class 2: ≥ 10 µM

Exercise: read the entry CN(C)c1nc(NCCNS(=O)(=O)c2ccc(C3=Nc4c(N)nc(N)nc4NC(c4ccc(Cl)cc4)C3)cc2)nc(Nc2ccc(F)cc2)n1 (centres unmarked) [31e] and state which class it falls under.
class 1

Exercise: read the entry COc1cc(/C=C/C(=O)c2ccc(C)cc2)ccc1Oc1nc(Nc2ccc(F)cc2)nc(N(C)C)n1 [21b] and state which class it falls under.
class 2

Exercise: read the entry CN(C)c1nc(NCCNS(=O)(=O)c2ccc(C(=O)/C=C/c3ccc(Cl)cc3)cc2)nc(N2CCOCC2)n1 [23e] and state which class it falls under.
class 2

Exercise: read the entry CN(C)c1nc(NCCNS(=O)(=O)c2ccc(C(=O)/C=C/c3ccc(Cl)cc3)cc2)nc(Nc2ccc(F)cc2)n1 [24e] and state which class it falls under.
class 1

Exercise: read the entry CN(C)c1nc(NCCNS(=O)(=O)c2ccc(C3=Nc4c(N)nc(N)nc4NC(c4ccc(F)cc4)C3)cc2)nc(Nc2ccc(F)cc2)n1 (centres unmarked) [31f] and state which class it falls under.
class 1

Exercise: read the entry CN(C)c1nc(NCCNS(=O)(=O)c2ccc(C3=Nc4c(N)nc(N)nc4NC(c4ccc(C(F)(F)F)cc4)C3)cc2)nc(Nc2ccc(F)cc2)n1 (centres unmarked) [31g] and state which class it falls under.
class 2

Exercise: read the entry CN(C)c1nc(NCCNS(=O)(=O)c2ccc(C(=O)/C=C/c3ccc(F)cc3)cc2)nc(Nc2ccc(F)cc2)n1 [24f] and state which class it falls under.
class 0

Exercise: read the entry COc1cc(/C=C/C(=O)c2ccc(S(=O)(=O)NCCNc3nc(N(C)C)nc(N4CCOCC4)n3)cc2)cc(OC)c1OC [23d] and state which class it falls under.
class 0

Exercise: read the entry CN(C)c1nc(NCCNS(=O)(=O)c2ccc(C(=O)/C=C/c3ccc(C(F)(F)F)cc3)cc2)nc(Nc2ccc(F)cc2)n1 [24g] and state which class it falls under.
class 0

Exercise: read the entry CN(C)c1nc(NCCNS(=O)(=O)c2ccc(C3=Nc4c(N)nc(N)nc4NC(c4ccc(C(F)(F)F)cc4)C3)cc2)nc(N2CCOCC2)n1 (centres unmarked) [30g] and state which class it falls under.
class 2

Exercise: read the entry COc1cc(/C=C/C(=O)c2cc(OC)c(OC)c(OC)c2)ccc1Oc1nc(NCCO)nc(N2CCOCC2)n1 [20d] and state which class it falls under.
class 1

Exercise: read the entry COc1ccc(/C=C/C(=O)c2ccc(S(=O)(=O)NCCNc3nc(Nc4ccc(F)cc4)nc(N(C)C)n3)cc2)cc1 [24c] and state which class it falls under.
class 1

Exercise: read the entry COc1cc(/C=C/C(=O)c2cc(OC)c(OC)c(OC)c2)ccc1Oc1nc(Nc2ccc(F)cc2)nc(N(C)C)n1 [21d] and state which class it falls under.
class 0

----------
Field: CC50. Provide a value for each of the compounds that follow.
# System: NCI-H322M
# Procedure details: cells
# Condition context: Homo sapiens, 48 h, read-out: LC50

// fetch NCI-H322M CC50 for COc1cc(C2CC(c3ccc(Cl)cc3)=Nc3c(N)nc(N)nc3N2)ccc1Oc1nc(Nc2ccc(F)cc2)nc(N(C)C)n1 (stereo not shown) [29e]
> 100 µM

// fetch NCI-H322M CC50 for CN(C)c1nc(NCCNS(=O)(=O)c2ccc(C3=Nc4c(N)nc(N)nc4NC(c4ccc(Cl)cc4)C3)cc2)nc(Nc2ccc(F)cc2)n1 (stereo not shown) [31e]
> 100 µM

// fetch NCI-H322M CC50 for COc1ccc(/C=C/C(=O)c2ccc(S(=O)(=O)NCCNc3nc(Nc4ccc(F)cc4)nc(N(C)C)n3)cc2)cc1 [24c]
> 100 µM

// fetch NCI-H322M CC50 for COc1cc(/C=C/C(=O)c2ccc(S(=O)(=O)NCCNc3nc(N(C)C)nc(N4CCOCC4)n3)cc2)cc(OC)c1OC [23d]
48.5 µM

// fetch NCI-H322M CC50 for CN(C)c1nc(NCCNS(=O)(=O)c2ccc(C(=O)/C=C/c3ccc(F)cc3)cc2)nc(Nc2ccc(F)cc2)n1 [24f]
17.8 µM

// fetch NCI-H322M CC50 for COc1cc(/C=C/C(=O)c2ccc(C)cc2)ccc1Oc1nc(NCCO)nc(N2CCOCC2)n1 [20b]
> 100 µM

// fetch NCI-H322M CC50 for Cc1ccc(C2CC(c3ccc(S(=O)(=O)NCCNc4nc(Nc5ccc(F)cc5)nc(N(C)C)n4)cc3)=Nc3c(N)nc(N)nc3N2)cc1 (stereo not shown) [31b]
> 100 µM

// data source = paper PMC11012124
